Experiment: Pharmacokinetic studies of certain compounds in female Balb/c mice (Example 5)
Format: in vivo
Details: female, Balb/c, mouse, plasma, po, 100 mg/kg, I-2 PO 100 mg/kg, 8 hr, read-out: Plasma concentration Mean
attribute measured: concentration at 8 h (ng/mL)

1) CC(C)Cc1sc(Nc2ncc(-c3cccs3)cc2C(=O)O)nc1C1=CCCCC1 | 952

====

Assay: Pharmacokinetic studies of certain compounds in female Balb/c mice (Example 5)
Format: in vivo
Conditions: female, Balb/c, mouse, plasma, po, 30 mg/kg, I-3 PO 30 mg/kg, 8 hr, read-out: Plasma concentration Individual
attribute measured: concentration at 8 hr (µg/mL)

1) CC(C)Cc1sc(Nc2ncc(-c3cccs3)cc2C(=O)O)nc1C1CCCCC1 [Compound I-3] | 0.182

====

Assay: Pharmacokinetic studies of certain compounds in female Balb/c mice (Example 5)
Format: in vivo
Conditions: mouse, plasma, I-8 PO 50 mg/kg
attribute measured: MRT last (h)

1. CC(C)Cc1sc(Nc2ncc(-c3cccs3)cc2C(=O)O)nc1C1=CCCC1 | 2.94

====

Assay: Pharmacokinetic study of I-11 in female BALB/c mice (Example 4)
Format: in vivo, Balb/c mouse
Conditions: female, BALB/c, mouse, plasma, po, 100 mg/kg, PO 100 mg/kg, 0.083 hr, read-out: Plasma concentration Mean
attribute measured: concentration at 0.083 hr (ng/mL)

1) CC(C)Cc1sc(Nc2ncc(-c3cccs3)cc2C(=O)O)nc1C(C)(C)C | 246

====

Assay: Pharmacokinetic studies of certain compounds in female Balb/c mice (Example 5)
Type: in vivo
Settings: female, Balb/c, mouse, plasma, iv, 1 mg/kg, I-27 IV 1 mg/kg, 8 hr, read-out: Plasma concentration Mean
Method: Pharmacokinetic studies were performed using Balb/c mice, 15-20 g, 6-9 weeks, female, N=9, purchased from Jihui Laboratory Animal Co. LTD. For compound I-29, Balb/c mice, 19-21 g, 9-11 weeks, female, N=9, were used. […] Plasma samples were analyzed using LC-MS using a calibration curve of known concentrations. The results of these studies are summarized in Tables 11-21 below and in FIGS. 2-8. […] BQL=below quantifiable limit for compound in female Balb/c mouse plasma samples. […]
attribute measured: concentration at 8 hr

1. CC(C)Cc1sc(Nc2ncc(-c3cccs3)cc2C(=O)O)nc1C1(C)CCCCC1 | 7.12 ng/mL

====

Test: Pharmacokinetic studies of certain compounds in female Balb/c mice (Example 5)
Format: in vivo
Conditions: female, Balb/c, mouse, plasma, iv, 1 mg/kg, I-8 IV 1 mg/kg, 0.083 hr, read-out: Plasma concentration Mean
attribute measured: concentration at 0.083 hr

1) CC(C)Cc1sc(Nc2ncc(-c3cccs3)cc2C(=O)O)nc1C1=CCCC1 | 1810 ng/mL

====

Assay: Pharmacokinetic studies of certain compounds in female Balb/c mice (Example 5)
Type: in vivo
Details: female, Balb/c, mouse, plasma, iv, 1 mg/kg, I-27 IV 1 mg/kg, 2 hr, read-out: Plasma concentration Mean
attribute measured: concentration at 2 hr (ng/mL)

1) CC(C)Cc1sc(Nc2ncc(-c3cccs3)cc2C(=O)O)nc1C1(C)CCCCC1 | 173

====

Assay: Pharmacokinetic studies of certain compounds in female Balb/c mice (Example 5)
Format: in vivo
Settings: female, BALB/c, mouse, plasma, po, 30 mg/kg, I-2 PO 30 mg/kg, 0.5 hr, read-out: Plasma concentration Mean
attribute measured: concentration at 0.5 hr (ng/mL)

1. CC(C)Cc1sc(Nc2ncc(-c3cccs3)cc2C(=O)O)nc1C1=CCCCC1 [Compound I-2] | 1240

====

Assay: Pharmacokinetic studies of certain compounds in female Balb/c mice (Example 5)
Format: in vivo
Details: female, Balb/c, mouse, plasma, po, 30 mg/kg, I-1 PO 30 mg/kg, 0.5 hr, read-out: Plasma concentration Individual
attribute measured: concentration at 0.5 h

1) CC(C)Cc1sc(Nc2ncc(-c3cccs3)cc2C(=O)O)nc1C1=CCOCC1 [Compound I-1] | 397 ng/mL

====

Experiment: Pharmacokinetic studies of certain compounds in female Balb/c mice (Example 5)
Assay type: in vivo
Settings: female, Balb/c, mouse, plasma, po, 100 mg/kg, I-2 PO 100 mg/kg, 0.5 hr, read-out: Plasma concentration Individual
attribute measured: concentration at 0.5 h (ng/mL)

1. CC(C)Cc1sc(Nc2ncc(-c3cccs3)cc2C(=O)O)nc1C1=CCCCC1 | 2800

====

Experiment: Pharmacokinetic studies of certain compounds in female Balb/c mice (Example 5)
Assay type: in vivo
Conditions: female, Balb/c, mouse, plasma, po, 23.8 mg/kg, I-29 PO 23.8 mg/kg, 0.5 hr, read-out: Plasma concentration Individual
attribute measured: concentration at 0.5 hr (ng/mL)

1. CC(C)Cc1sc(Nc2ncc(-c3cccs3)cc2C(=O)O)nc1C1CCC(F)(F)CC1 | 305

====

Experiment: Pharmacokinetic study of I-11 in female BALB/c mice (Example 4)
Type: in vivo, Balb/c mouse
Details: female, BALB/c, mouse, plasma, po, 50 mg/kg, PO 50 mg/kg, 0.5 hr, read-out: Plasma concentration Individual
attribute measured: concentration at 0.5 hr (ng/mL)

1. CC(C)Cc1sc(Nc2ncc(-c3cccs3)cc2C(=O)O)nc1C(C)(C)C | 3830

====

Experiment: Pharmacokinetic studies of certain compounds in female Balb/c mice (Example 5)
Assay type: in vivo
Settings: female, Balb/c, mouse, plasma, iv, 1.48 mg/kg, I-29 IV 1.48 mg/kg, 0.25 hr, read-out: Plasma concentration Mean
attribute measured: concentration at 0.25 hr (ng/mL)

1. CC(C)Cc1sc(Nc2ncc(-c3cccs3)cc2C(=O)O)nc1C1CCC(F)(F)CC1 | 206

====

Experiment: Pharmacokinetic studies of certain compounds in female Balb/c mice (Example 5)
Type: in vivo
Conditions: mouse, plasma, I-3 IV 1 mg/kg
attribute measured: MRT inf (min)

1. CC(C)Cc1sc(Nc2ncc(-c3cccs3)cc2C(=O)O)nc1C1CCCCC1 | 34.8

====

Test: Pharmacokinetic studies of certain compounds in female Balb/c mice (Example 5)
Format: in vivo
Settings: mouse, plasma, I-27 PO 30 mg/kg
attribute measured: MRT last (h)

1) CC(C)Cc1sc(Nc2ncc(-c3cccs3)cc2C(=O)O)nc1C1(C)CCCCC1 | 4.68

====

Assay: Pharmacokinetic studies of certain compounds in female Balb/c mice (Example 5)
Format: in vivo
Details: mouse, plasma, I-2 PO 100 mg/kg
attribute measured: Cmax (ng/mL)

1. CC(C)Cc1sc(Nc2ncc(-c3cccs3)cc2C(=O)O)nc1C1=CCCCC1 | 3920

====

Assay: Pharmacokinetic studies of certain compounds in female Balb/c mice (Example 5)
Format: in vivo
Conditions: mouse, plasma, I-3 IV 1 mg/kg
attribute measured: half-life (h)

1. CC(C)Cc1sc(Nc2ncc(-c3cccs3)cc2C(=O)O)nc1C1CCCCC1 | 1.41

====

Assay: Pharmacokinetic study of I-11 in female BALB/c mice (Example 4)
Format: in vivo, Balb/c mouse
Conditions: female, BALB/c, mouse, plasma, po, 50 mg/kg, PO 50 mg/kg, 1 hr, read-out: Plasma concentration Individual
attribute measured: concentration at 1 hr (ng/mL)

1) CC(C)Cc1sc(Nc2ncc(-c3cccs3)cc2C(=O)O)nc1C(C)(C)C [Compound I-11] | 8760

====

Assay: Pharmacokinetic study of I-11 in female BALB/c mice (Example 4)
Format: in vivo, Balb/c mouse
Conditions: female, BALB/c, mouse, plasma, po, 50 mg/kg, PO 50 mg/kg, 8 hr, read-out: Plasma concentration Individual
attribute measured: concentration at 8 hr (ng/mL)

1) CC(C)Cc1sc(Nc2ncc(-c3cccs3)cc2C(=O)O)nc1C(C)(C)C | 367

====

Assay: Pharmacokinetic studies of certain compounds in female Balb/c mice (Example 5)
Type: in vivo
Conditions: mouse, plasma, I-27 IV 1 mg/kg
attribute measured: C0 (ng/mL)

1. CC(C)Cc1sc(Nc2ncc(-c3cccs3)cc2C(=O)O)nc1C1(C)CCCCC1 | 9630

====

Assay: Pharmacokinetic studies of certain compounds in female Balb/c mice (Example 5)
Type: in vivo
Details: female, Balb/c, mouse, plasma, po, 50 mg/kg, I-8 PO 50 mg/kg, 2 hr, read-out: Plasma concentration Mean
attribute measured: concentration at 2 h (ng/mL)

1. CC(C)Cc1sc(Nc2ncc(-c3cccs3)cc2C(=O)O)nc1C1=CCCC1 | 1960

====

Test system: NCIH510A
Test: Cell viability assay, suspension cell line, 5 day Alamar Blue (Example 8): NCIH510A
Type: cell-based
Conditions: Homo sapiens, NCI-H510A, 120 h, Small Cell Lung Cancer Cell Line
attribute measured: IC50

1. CC(C)Cc1sc(Nc2ncc(-c3cccs3)cc2C(=O)O)nc1C1=CCCC1 | ≤ 1000 nM
2. CC(C)Cc1sc(Nc2ncc(-c3cccs3)cc2C(=O)O)nc1C1CCC1 | ≤ 1000 nM
3. CC(C)Cc1sc(Nc2ncc(-c3cccs3)cc2C(=O)O)nc1C(C)(C)C | ≤ 1000 nM
4. CC(C)Cc1sc(Nc2ncc(-c3cccs3)cc2C(=O)O)nc1C1=CCC(F)(F)CC1 | ≤ 1000 nM
5. Cc1ccc(-c2cnc(Nc3nc(C(C)(C)C)c(CC(C)C)s3)c(C(=O)O)c2)s1 | 1000 to 8000 nM
6. CC(C)Cc1sc(Nc2ncc(-c3cccs3)cc2C(=O)O)nc1C1CCCCC1 | 1000 to 8000 nM
7. CC(C)Cc1sc(Nc2ncc(-c3cccs3)cc2C(=O)O)nc1C1(C)CCCCC1 | ≤ 1000 nM
8. CC(C)Cc1sc(Nc2ncc(-c3cccs3)cc2C(=O)O)nc1C1CCC(F)(F)CC1 | ≤ 1000 nM
9. C=C(C)c1nc(Nc2ncc(-c3cccs3)cc2C(=O)O)sc1CC(C)C | 1000 to 8000 nM
10. Cc1ccc(-c2cnc(Nc3nc(C4CCC(F)(F)CC4)c(CC(C)C)s3)c(C(=O)O)c2)s1 | 1000 to 8000 nM
